- EXPERIMENTAL DETAILS: Phase 1 combination study: MK-2206 pharmacokinetics
- Assay type: in vivo, human
- CONDITION DESCRIPTION: human, plasma, oral; 45-mg QOD (arm 3), last PK sampling time
ASSAY ENDPOINT: concentration at 48 h

SMILES CODE	ASSAY ENDPOINT	EXPERIMENTAL VALUE
NC1(c2ccc(-c3nc4ccn5c(=O)[nH]nc5c4cc3-c3ccccc3)cc2)CCC1	concentration at 48 h	> 56.8 nM

----------
- ASSAYED SYSTEM: 2D6 (Homo sapiens, UniProt P10635)
- Sequence (P10635 whole entry): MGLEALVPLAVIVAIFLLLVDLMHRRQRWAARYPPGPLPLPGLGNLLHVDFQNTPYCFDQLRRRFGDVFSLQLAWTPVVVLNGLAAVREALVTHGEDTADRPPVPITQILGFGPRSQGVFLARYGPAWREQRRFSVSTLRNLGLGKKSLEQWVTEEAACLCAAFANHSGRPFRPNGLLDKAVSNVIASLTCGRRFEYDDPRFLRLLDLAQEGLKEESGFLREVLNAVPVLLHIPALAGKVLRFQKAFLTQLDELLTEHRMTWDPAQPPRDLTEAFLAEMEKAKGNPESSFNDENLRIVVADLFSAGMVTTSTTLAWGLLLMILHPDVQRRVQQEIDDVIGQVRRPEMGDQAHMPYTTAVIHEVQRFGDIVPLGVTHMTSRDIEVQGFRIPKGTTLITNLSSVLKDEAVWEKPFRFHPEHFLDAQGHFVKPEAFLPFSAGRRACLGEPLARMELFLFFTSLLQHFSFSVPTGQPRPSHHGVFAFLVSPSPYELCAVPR
pIC50: −log10 of the molar value.

COMPOUND	ASSAYED SYSTEM	pIC50
NC1(c2ccc(-c3nc4ccn5c(=O)[nH]nc5c4cc3-c3ccccc3)cc2)CCC1 [MK-2206]	2D6 (Homo sapiens, UniProt P10635)	< 4.46

Data provenance is paper PMC3884022.
